- Tested on: PCP-induced hyperlocomotor activity in mice
- method description: Reversal of Phencyclidine (PCP)-Induced Hyperlocomotor Activity in Mice
- Format: in vivo, mouse
- condition label: Mus musculus, i.p. administration, 30 minutes prior to 7.5 mg/kg PCP
Where a name gives a salt, the structure may show the parent alone.
Exercise: for every item that follows, state its recorded ED50.
Unit mg/kg implied. Number only.

Query :: May I ask what ED50 has been recorded for Cl.N[C@@]1(C(=O)O)C[C@@H](Sc2cn[nH]n2)[C@H]2[C@H](C(=O)O)[C@H]21 [Example 1] ?
Result :: 18.4

Query :: May I ask what ED50 has been recorded for Nc1nnc(S[C@@H]2C[C@@](N)(C(=O)O)[C@@H]3[C@@H](C(=O)O)[C@@H]32)[nH]1 [Example 3] ?
Result :: 17.1

Query :: May I ask what ED50 has been recorded for Cl.N[C@@]1(C(=O)O)C[C@@H](Sc2nnc(C(F)(F)F)[nH]2)[C@H]2[C@H](C(=O)O)[C@H]21 [Example 2] ?
Result :: 14.4

Query :: May I ask what ED50 has been recorded for N[C@@]1(C(=O)O)C[C@H](Sc2c[nH]nn2)[C@H]2[C@H](C(=O)O)[C@H]21 [Example 11, hydrochloride] ?
Result :: 1.2

====

Exercise: for every item that follows, state its recorded EC50.
- target or test system: human mGlu2 receptor (Homo sapiens)
- method description: Human mGlu2 Agonist FLIPR Assay
- condition label: hMGLUR2 FLIPR assay, AV-12 cells expressing human mGlu2, calcium response; read-out: Relative EC50
Unit µM implied. Number only.

Query :: Notebook entry, human mGlu2 receptor (Homo sapiens) assay: EC50 of N[C@@]1(C(=O)O)C[C@H](Sc2nc[nH]n2)[C@H]2[C@H](C(=O)O)[C@H]21 = ?
Result :: 0.0691

Query :: Notebook entry, human mGlu2 receptor (Homo sapiens) assay: EC50 of Cl.N[C@@]1(C(=O)O)C[C@@H](Sc2cn[nH]n2)[C@H]2[C@H](C(=O)O)[C@H]21 [Example 1, hydrochloride] = ?
Result :: 0.046

====

- method description: In Vitro Intestinal Prodrug Hydrolysis Assay
- Type: in vitro ADME
- condition label: 1 h, 10 µM, pH 7.4
assay readout: In Vitro Human Intestinal Hydrolysis % (relative to positive control) (%)
Unit % implied. Number only.

Query :: May I ask what In Vitro Human Intestinal Hydrolysis % (relative to positive control) has been recorded for C[C@H](N)C(=O)N[C@@]1(C(=O)O)C[C@@H](Sc2cn[nH]n2)[C@H]2[C@H](C(=O)O)[C@H]21.Cl ?
Result :: 58.1

Query :: May I ask what In Vitro Human Intestinal Hydrolysis % (relative to positive control) has been recorded for CSCC[C@H](N)C(=O)N[C@@]1(C(=O)O)C[C@@H](Sc2nnc(C(F)(F)F)[nH]2)[C@H]2[C@H](C(=O)O)[C@H]21.Cl ?
Result :: 63.3

Query :: May I ask what In Vitro Human Intestinal Hydrolysis % (relative to positive control) has been recorded for CSCC[C@H](N)C(=O)N[C@@]1(C(=O)O)C[C@@H](Sc2cn[nH]n2)[C@H]2[C@H](C(=O)O)[C@H]21.Cl ?
Result :: 63.8

Query :: May I ask what In Vitro Human Intestinal Hydrolysis % (relative to positive control) has been recorded for Cl.NCC(=O)N[C@@]1(C(=O)O)C[C@@H](Sc2nnc(C(F)(F)F)[nH]2)[C@H]2[C@H](C(=O)O)[C@H]21 ?
Result :: 65.5

====

Exercise: for every item that follows, state its recorded Emax.
- target or test system: human mGlu2 receptor (Homo sapiens, UniProt Q14416)
- Construct: expressed in transfected cells; host or cells: AV-12 cells (Syrian hamster fibroblasts), co-transfected with rat EAAT1 and Galpha15
- Sequence (Q14416 19-872): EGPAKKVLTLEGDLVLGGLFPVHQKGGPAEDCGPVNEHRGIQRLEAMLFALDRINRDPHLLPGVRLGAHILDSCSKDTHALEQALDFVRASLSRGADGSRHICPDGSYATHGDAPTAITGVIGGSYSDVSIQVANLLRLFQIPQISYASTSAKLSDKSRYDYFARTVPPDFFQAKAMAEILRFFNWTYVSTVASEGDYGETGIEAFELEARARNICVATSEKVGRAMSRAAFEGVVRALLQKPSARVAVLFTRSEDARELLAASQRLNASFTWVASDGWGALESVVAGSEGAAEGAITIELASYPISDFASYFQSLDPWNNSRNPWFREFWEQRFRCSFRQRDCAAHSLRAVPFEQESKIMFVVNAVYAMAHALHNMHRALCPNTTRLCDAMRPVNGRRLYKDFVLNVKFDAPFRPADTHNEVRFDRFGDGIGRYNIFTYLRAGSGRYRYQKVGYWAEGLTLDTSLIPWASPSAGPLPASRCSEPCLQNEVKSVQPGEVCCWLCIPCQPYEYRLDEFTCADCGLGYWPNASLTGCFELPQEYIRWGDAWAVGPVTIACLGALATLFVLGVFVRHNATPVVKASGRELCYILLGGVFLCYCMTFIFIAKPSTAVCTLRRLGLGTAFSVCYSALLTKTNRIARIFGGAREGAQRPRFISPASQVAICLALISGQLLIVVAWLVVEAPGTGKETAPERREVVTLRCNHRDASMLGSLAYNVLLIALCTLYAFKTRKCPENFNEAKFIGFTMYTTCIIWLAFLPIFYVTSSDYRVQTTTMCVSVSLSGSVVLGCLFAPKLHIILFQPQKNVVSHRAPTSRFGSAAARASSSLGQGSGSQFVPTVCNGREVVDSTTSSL
- method description: Human mGlu2 Agonist FLIPR Assay
- Assay type: cell-based
- condition label: percent stimulation relative to maximal glutamate response (100 μM glutamate); read-out: Relative % Efficacy
Counter-ions that a name gives are not always drawn.
Unit % implied. Number only.

Query :: May I ask what Emax has been recorded for N[C@@]1(C(=O)O)C[C@H](Sc2nc[nH]n2)[C@H]2[C@H](C(=O)O)[C@H]21 ?
Result :: 89

Query :: May I ask what Emax has been recorded for Cl.N[C@@]1(C(=O)O)C[C@@H](Sc2cn[nH]n2)[C@H]2[C@H](C(=O)O)[C@H]21 [Example 1, hydrochloride] ?
Result :: 92.6

Query :: May I ask what Emax has been recorded for N[C@@]1(C(=O)O)C[C@H](Sc2n[nH]c(C(F)(F)F)n2)[C@H]2[C@H](C(=O)O)[C@H]21 [Example 12, hydrochloride] ?
Result :: 92.1

Query :: May I ask what Emax has been recorded for Cl.N[C@@]1(C(=O)O)C[C@@H](Sc2nnc(C(F)(F)F)[nH]2)[C@H]2[C@H](C(=O)O)[C@H]21 [Example 2, hydrochloride] ?
Result :: 78.5

====

- target or test system: PepT1 (Homo sapiens)
- Construct: expressed in transfected cells; host or cells: HeLa cells (ATCC), transient transfection with FUGENE6
- Sequence (P46059 whole entry): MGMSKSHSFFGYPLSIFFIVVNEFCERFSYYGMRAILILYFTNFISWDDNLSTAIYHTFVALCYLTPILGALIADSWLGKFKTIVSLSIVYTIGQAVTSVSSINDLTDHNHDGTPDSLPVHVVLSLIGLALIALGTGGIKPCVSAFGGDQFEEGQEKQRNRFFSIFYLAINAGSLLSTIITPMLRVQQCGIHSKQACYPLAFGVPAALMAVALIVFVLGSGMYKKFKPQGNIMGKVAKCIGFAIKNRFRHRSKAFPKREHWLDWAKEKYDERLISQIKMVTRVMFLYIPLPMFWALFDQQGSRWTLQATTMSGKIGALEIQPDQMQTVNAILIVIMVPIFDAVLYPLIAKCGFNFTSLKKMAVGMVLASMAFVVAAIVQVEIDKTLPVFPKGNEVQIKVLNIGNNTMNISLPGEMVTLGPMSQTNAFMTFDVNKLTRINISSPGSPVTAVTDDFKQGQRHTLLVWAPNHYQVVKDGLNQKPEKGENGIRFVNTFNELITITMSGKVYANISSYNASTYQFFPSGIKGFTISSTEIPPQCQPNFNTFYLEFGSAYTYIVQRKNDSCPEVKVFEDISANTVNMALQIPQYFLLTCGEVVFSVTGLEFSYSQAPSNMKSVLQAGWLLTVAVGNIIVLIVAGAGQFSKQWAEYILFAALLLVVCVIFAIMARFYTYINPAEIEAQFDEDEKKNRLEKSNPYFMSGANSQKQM
- method description: In Vitro PepT1 GlySar Inhibition Screen
- Type: cell-based
- condition label: prodrug at 5 mM, pH 6.0, PepT1 transiently transfected HeLa cells, 5 μM [14C]Gly-Sar and 20 μM cold Gly-Sar; read-out: Mean GlySar Uptake Inhibition %
Structures can show the parent of a compound that is named as a salt.
assay readout: inhibition at 5000 µM (%)
Unit % implied. Number only.

Query :: May I ask what inhibition at 5000 µM has been recorded for NCC(=O)N[C@@]1(C(=O)O)C[C@H](Sc2nnc[nH]2)[C@H]2[C@H](C(=O)O)[C@H]21 [Example 22, hydrochloride] ?
Result :: 46.7

Query :: May I ask what inhibition at 5000 µM has been recorded for CC(C)C[C@H](N)C(=O)N[C@@]1(C(=O)O)C[C@H](Sc2nnc[nH]2)[C@H]2[C@H](C(=O)O)[C@H]21 [Example 24, hydrochloride] ?
Result :: 47.1

Query :: May I ask what inhibition at 5000 µM has been recorded for CSCC[C@H](N)C(=O)N[C@@]1(C(=O)O)C[C@@H](Sc2cn[nH]n2)[C@H]2[C@H](C(=O)O)[C@H]21.Cl [Example 21, hydrochloride] ?
Result :: 57.4

Query :: May I ask what inhibition at 5000 µM has been recorded for C[C@H](N)C(=O)N[C@@]1(C(=O)O)C[C@@H](Sc2nnc(C(F)(F)F)[nH]2)[C@H]2[C@H](C(=O)O)[C@H]21 [Example 16, hydrochloride] ?
Result :: 53.9
